# Study target: T1, rat CaSR (rCaSR) (Rattus norvegicus, UniProt P48442)
# T1 construct: mGlu5 signal peptide (N); expressed in transfected cells; host or cells: HEK293A, transient transfection
# T1 sequence (P48442 20-1079): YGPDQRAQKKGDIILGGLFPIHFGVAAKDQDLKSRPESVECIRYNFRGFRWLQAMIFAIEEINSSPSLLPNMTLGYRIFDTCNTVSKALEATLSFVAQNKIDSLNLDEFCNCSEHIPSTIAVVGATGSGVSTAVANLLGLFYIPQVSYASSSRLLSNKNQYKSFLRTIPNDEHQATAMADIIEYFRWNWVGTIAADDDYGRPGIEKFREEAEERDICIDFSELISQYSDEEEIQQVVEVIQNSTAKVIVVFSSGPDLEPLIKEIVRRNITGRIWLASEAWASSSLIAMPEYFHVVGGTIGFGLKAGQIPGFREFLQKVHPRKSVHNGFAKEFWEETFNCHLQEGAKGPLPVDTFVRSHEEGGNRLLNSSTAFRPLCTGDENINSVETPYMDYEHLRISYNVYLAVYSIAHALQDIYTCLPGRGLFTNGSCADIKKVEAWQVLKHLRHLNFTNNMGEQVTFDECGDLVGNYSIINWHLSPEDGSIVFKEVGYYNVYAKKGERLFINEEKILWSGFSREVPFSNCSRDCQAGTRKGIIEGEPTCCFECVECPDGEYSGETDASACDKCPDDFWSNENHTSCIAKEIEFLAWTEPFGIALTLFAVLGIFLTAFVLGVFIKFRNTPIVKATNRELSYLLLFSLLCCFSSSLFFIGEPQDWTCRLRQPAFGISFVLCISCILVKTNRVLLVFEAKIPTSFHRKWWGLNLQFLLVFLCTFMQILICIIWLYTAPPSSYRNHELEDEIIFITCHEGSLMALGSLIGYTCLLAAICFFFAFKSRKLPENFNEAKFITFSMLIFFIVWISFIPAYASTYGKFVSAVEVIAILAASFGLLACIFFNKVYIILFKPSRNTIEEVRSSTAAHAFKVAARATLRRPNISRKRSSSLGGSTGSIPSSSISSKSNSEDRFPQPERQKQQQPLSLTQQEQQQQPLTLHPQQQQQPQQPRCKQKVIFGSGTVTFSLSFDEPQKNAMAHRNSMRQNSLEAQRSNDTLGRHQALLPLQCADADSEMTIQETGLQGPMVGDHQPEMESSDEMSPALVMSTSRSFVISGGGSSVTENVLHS
# Assay explanation: IP1 accumulation assay, HEK293A cells transiently transfected with HA-rCaSR WT
# Assay type: cell-based
# Experimental parameters: IP1 accumulation at EC20 Ca2+; three independent experiments in triplicate
Parameter: Potency (pEC50 ± S.E.M.), rat ortholog
Response field accepts a number only; no unit should be typed.

Tell me its Potency (pEC50 ± S.E.M.), rat ortholog given Nb2: llama-derived CaSR-specific nanobody acting as PAM, SEQ ID NO:9 (protein, CaSR Nb2) VHH: QVQLVESGGGLVQAGSSLRLSCAASGRTFSNYRMAWFRQAPGKEREFVAVISRGGGGADYADSVKGRFTISRDNVKNTVSLQMNSLKPEDTAVYFCAARISGFSYYTSVDRYDYWGQGTQVTVSS as the entry.
6.46

Tell me its Potency (pEC50 ± S.E.M.), rat ortholog given Nb11: llama-derived CaSR-specific nanobody acting as PAM, SEQ ID NO:6 (protein, CaSR Nb11) VHH: QVQLVESGGGLVQAGGSLRLSCAASGRTFSTYRMGWFRQGPGKEREFVAAITATGVKTYYTDSVKGRFTISRDNAKNTVYLQMNSVQPEDTAVYSCAARIKAIFTAQQAATITDYDYWGQGTQVTVSS as the entry.
6.24

Tell me its Potency (pEC50 ± S.E.M.), rat ortholog given Nb36: llama-derived CaSR-specific nanobody acting as PAM, SEQ ID NO:7 (protein, CaSR Nb36) VHH: QVQLVESGGGLVQAGESLRLSCAASGRTFSSYRMGWFRQGPGKEREFVAAITATGVRTYYADSVKGRFTISRDNAKNTVYLQMNSLQPDDTAVYLCAARRKAIFSVQQALTITDYDDWGQGTQVTVSS as the entry.
6.78

Tell me its Potency (pEC50 ± S.E.M.), rat ortholog given Nb10: llama-derived CaSR-specific nanobody acting as PAM, SEQ ID NO:3 (protein, CaSR Nb10) VHH: QVQLVESGGGLVQPGDSLRVSCAASGGSFRSYAMAWFRQAPGKEREFVAAMSGTYGSTIYSDSMKGRFTISRDNAKKMVYLRMNSLRPEDTAVYYCAGYYSGAYYGTPKTDYTEYDSWGQGTQVTVSS as the entry.
6.29

Tell me its Potency (pEC50 ± S.E.M.), rat ortholog given Nb4: llama-derived CaSR-specific nanobody acting as PAM, SEQ ID NO:5 (protein, CaSR Nb4) VHH: QVQLVESGGGLVQAGGSLRLSCAASGRTFSTYRMGWFRQGLGKEREFVAAITANGVRTFYTDSVKGRFTISRDNAKNTLYLQMNSLQPDDTAVYLCAARRKGIFTVQQAQDITDWDYWGQGTQVTVSS as the entry.
7.09

Tell me its Potency (pEC50 ± S.E.M.), rat ortholog given Nb15: llama-derived CaSR-specific nanobody acting as PAM, SEQ ID NO:10 (protein, CaSR Nb15) VHH: QVQLVESGGGLVQAGGSLRLSCAASGRTFNNYHMAWFRQAPGKEREFAAAISRRAGTTYYADSVKGRFTISRDNAKNTVYLQMNSLKPEDTAVYYCAADPDTYGVSYLARKYDYWGQGTQVTVSS as the entry.
6.31

Tell me its Potency (pEC50 ± S.E.M.), rat ortholog given Nb37: llama-derived CaSR-specific nanobody acting as PAM, SEQ ID NO:4 (protein, CaSR Nb37) VHH: QVQLVESGGGLVQPGDSLRVSCAASGGSFRSYAMAWFRRAPGKEREFVAAMSGTYGSTIYADSMKGRFTISRDNAKKMVYLRMNSLRAEDTAVYYCAGYYSGAYYGTPKTDYTEYDSWGQGTQVTVSS as the entry.
6.00

Hello, the source for this data is patent US20220411495A1, in case you need it.
